Tested on: MDA-MB-231
METHOD: MTT cytotoxicity assay, MDA-MB-231
MEASUREMENT_PARAMETERS: MDA, 1.6ug (log conc. 0.19)
Please provide measured % viability for the entries that follow.
# number only, unit % dropped from output

Exam item: Entry `CC(=O)Oc1ccc2c(COC(=O)c3ccccc3)cc(=O)oc2c1` has what % viability?
Marked response: 58.55

Exam item: Data request, read-out % viability, for `O=C(COc1ccc2c(CCl)cc(=O)oc2c1)c1ccccc1`
Marked response: 50.473

Exam item: Data request, read-out % viability, for `COc1ccccc1C(=O)OCc1cc(=O)oc2cc(OC(C)=O)ccc12`
Marked response: 65.9

Exam item: For the compound `COc1ccccc1C(=O)OCc1cc(=O)oc2cc(OCC(=O)c3ccccc3)ccc12` , what % viability is on record?
Marked response: 66.71

Exam item: Recorded % viability of `O=C(COc1ccc2c(CCl)cc(=O)oc2c1)c1ccc(Cl)cc1` , please.
Marked response: 63.08

Exam item: % viability for `CC(=O)Oc1ccc2c(COC(=O)c3ccc(Cl)cc3)cc(=O)oc2c1` ?
Marked response: 43.354

###

METHOD: in vitro
MEASUREMENT_PARAMETERS: human, MCF-10A cells (nonmalignant breast)
REPORTED_METRIC: log10(IC50 at 48 h) (log10 of the value in µg/mL)
Hello, just confirming the data are log10 of IC50 at 48 h with units of µg/mL.

Exam item: # input molecule: COc1cccc2c1C(=O)c1c(O)c3c(c(O)c1C2=O)C[C@@](O)(C(=O)CO)C[C@@H]3O[C@H]1C[C@H](N)[C@H](O)[C@H](C)O1 [Doxorubicin, reference compound] ; wanted: its log10(IC50 at 48 h)
Marked response: 1.09

Exam item: Would you mind telling me what log10(IC50 at 48 h) value was observed for `O=C(OCc1cc(=O)oc2cc(O)ccc12)c1ccccc1` ?
Marked response: 1.74

Exam item: Entry `CC(=O)Oc1ccc2c(COC(=O)c3ccccc3)cc(=O)oc2c1` has what log10(IC50 at 48 h)?
Marked response: 2.22

Exam item: log10(IC50 at 48 h) lookup needed for `O=C(COc1ccc2c(CCl)cc(=O)oc2c1)c1ccc(Cl)cc1` , thanks.
Marked response: 1.75

Exam item: Which log10(IC50 at 48 h) is reported for this molecule? `CC(=O)Oc1ccc2c(COC(=O)c3ccc(Cl)cc3)cc(=O)oc2c1`
Marked response: 1.99

Exam item: Using the record for `COc1ccccc1C(=O)OCc1cc(=O)oc2cc(OC(C)=O)ccc12` , report its log10(IC50 at 48 h).
Marked response: 2.06

###

METHOD: in vitro
MEASUREMENT_PARAMETERS: human, MCF-10A cells (nonmalignant breast)
Provide the recorded viability at 48 h, 0.4 ug for the entries that follow.
Express the result in % but write the number alone.

Exam item: Quick one: viability at 48 h, 0.4 ug of `COc1ccccc1C(=O)OCc1cc(=O)oc2cc(OC(C)=O)ccc12` ?
Marked response: 86

Exam item: Name the recorded viability at 48 h, 0.4 ug for `CC(=O)Oc1ccc2c(COC(=O)c3ccccc3)cc(=O)oc2c1` .
Marked response: 89.7

Exam item: // query viability at 48 h, 0.4 ug value for entry `CC(=O)Oc1ccc2c(COC(=O)c3ccc(Cl)cc3)cc(=O)oc2c1`
Marked response: 85.6

Exam item: So what's the measured viability at 48 h, 0.4 ug for this one? `O=C(COc1ccc2c(CCl)cc(=O)oc2c1)c1ccc(Cl)cc1`
Marked response: 78.1

Exam item: Fill in: viability at 48 h, 0.4 ug of `O=C(OCc1cc(=O)oc2cc(O)ccc12)c1ccccc1` is ___
Marked response: 88

Exam item: Request the reported viability at 48 h, 0.4 ug associated with COc1cccc2c1C(=O)c1c(O)c3c(c(O)c1C2=O)C[C@@](O)(C(=O)CO)C[C@@H]3O[C@H]1C[C@H](N)[C@H](O)[C@H](C)O1 [Doxorubicin, reference compound]
Marked response: 74
